Assay: Restrictive medium S. cerevisiae growth inhibition, OD615, pilot screen of yeast lifespan reduction project, restrictive growth control (AID 706);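 further: modified DeaD lifespan yeast strain shifted to restrictive glucose medium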
Conditions: OD615, 48 h, at 10 µM, stronger effect = higher value
endpoint: growth inhibition (%)
Kindly provide the numeric value in % only, without the unit symbol.

- compound: "O=C(NC(Nc1ncccn1)C(=O)c1ccccc1)c1ccccc1 (configuration not stated)"
  meas.value: -0.54

So what's the measured growth inhibition for this one? Cc1sc2nc(NCCO)[nH]c(=O)c2c1C
-23.2

----------
Experiment: growth suppression of beta-catenin knockout HCT116, pilot screen, human colon tumor cells (AID 823);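 further: 0% = wells killed by 20 µM Hyamine and 100% = untreated DMSO cell wells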
Details: CellTiter-Glo, 60 h, at 10 µM, stronger effect = lower value
Inconclusive results are not listed. The source made the active and inactive calls.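 Rule for the calls: active = cell viability at or below a set limit in both duplicate runs, the limit being the all-compound median minus 4 SD (cut at about 23% in these data, passing the limit was not always enough); inconclusive = no clear call, values can overlap the other calls; inactive = the rest.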
This section presents molecules with their documented viability values.

// below: answered molecules
- molecule: "CC(C)(C)C1(C)OC(C(N)=O)C(C(N)=O)O1 (stereo not given)"
  meas.value: "98.2% (inactive)"
- molecule: "CN(C)C(=O)N1CCC(C(=O)NCc2ccc(F)cc2)CC1"
  meas.value: "104% (inactive)"
- molecule: "Cc1ccc(C(=O)N(Cc2nc(-c3ccc(C)cc3)no2)C(C)C)cc1"
  meas.value: "100% (inactive)"
- molecule: "Cc1nn(C(=O)CN2C(=O)c3ccccc3C2=O)c(C)c1Br"
  meas.value: "101% (inactive)"
- molecule: "OCCN1CCN(Cc2cccc(Oc3ccc(Cl)cc3)c2)CC1"
  meas.value: "63.2% (inactive)"

Report viability for COc1cc(C2NC(=O)N(C)C3=C2C(=O)CCC3)cc(OC)c1OC (stereo not given) please.
104% (inactive)

Would you mind telling me what viability value was observed for Cn1cccc1Cc1nnc(SCC(=O)N2CCCC2)n1CCc1ccccc1 ?
103% (inactive)

What value of viability has been reported for the following molecule? CCN1C(=O)c2cccc3c(NC(=O)c4ccc(S(=O)(=O)N5CCOCC5)cc4)ccc1c23
65.6% (inactive)

What value of viability has been recorded for this entry: COC(=O)c1cc(-c2ccc(Br)cc2)on1
102% (inactive)

Request the reported viability associated with CCN1CCCC1CNC(=O)C1c2ccccc2C(=O)N(CCOC)C1c1ccc(F)cc1 (stereo not given)
95.6% (inactive)

If you can, please state the reported viability value of CCCOc1ccc(C(=O)NCc2ccco2)cc1 .
98% (inactive)

Which viability value belongs to CCOC(=O)N1CCC(NC(=O)c2cc3c(-c4ccc(Cl)cc4)nn(C)c3s2)CC1 ?
91.4% (inactive)

Please report the recorded viability for O=C1C(Cl)=C(N2CCOCC2)C(=O)N1c1ccccc1Cl .
99.2% (inactive)

Entry CC(=O)c1cccc(NC(=O)C2CCCN(S(=O)(=O)c3cccc4cccnc34)C2)c1 (stereo not given) has what viability?
83.5% (inactive)

# viability lookup, item O=C(Cn1cnc2c(nnn2-c2ccccc2)c1=O)N1CCC(Cc2ccccc2)CC1
91.4% (inactive)

Which viability value belongs to Cc1cccc2sc(NC(=O)CCNS(=O)(=O)c3cccc4nonc34)nc12 ?
86.1% (inactive)

I am curious: what viability value has been reported for CCOC(=O)N1CCC(C(=O)Nc2ccc(OCC)cc2)CC1 ?
88% (inactive)

viability lookup needed for COc1cc2[nH]c(=O)n(CCC(=O)NC3CCN(Cc4ccccc4)CC3)c(=O)c2cc1OC , thanks.
101% (inactive)

Reported viability for COC(=O)CN(c1ccc(C(C)C)cc1)S(=O)(=O)c1c(C)[nH]c(=O)[nH]c1=O : what is it?
88.8% (inactive)

Suppose we examine the molecule O=C(c1ccccc1F)N1CCN=C1SCc1cccnc1 ; what viability value has been reported?
96.8% (inactive)

Look up viability: Cc1nc(N2CCN(C)CC2)c2sc(=S)n(-c3ccccc3)c2n1
93.4% (inactive)

Report viability for O=C(O)CCCC(=O)N1CCN(c2nc(-c3ccccc3)c3ccccc3n2)CC1 please.
102% (inactive)

Report viability for CCOc1cc2[nH]c(=O)n(Cc3ccc(C(=O)NCCOC)cc3)c(=O)c2cc1OCC please.
97.8% (inactive)

Look at this molecule and give its reported viability. Cc1ccc(-n2ncc3c(N4CCC5(CC4)OCCO5)ncnc32)c(C)c1
80.3% (inactive)

Tell me the measured viability of CCOc1ccccc1NC(=O)CN(c1cc(C)cc(C)c1)S(=O)(=O)c1c(C)noc1C , please.
106% (inactive)

Given COc1cc(CC(=O)O)c(C(C)=O)cc1OC , state its recorded viability.
100% (inactive)

Data request, read-out viability, for O=C(O)c1ccccc1C(=O)NCc1ccccc1
99.3% (inactive)

I'd like to know its viability. The molecule in question is COc1cccc(NC(=O)CSc2nnc(Cn3c(=O)sc4ccccc43)n2C)c1
102% (inactive)

Entry O=C(c1ccc(Cn2c(=O)[nH]c3ccccc3c2=O)cc1)N1CCN(c2ccccn2)CC1 has what viability?
93.1% (inactive)
